In this section, each of the molecules is paired with its reported GI50.
test system: MCF7 breast; experiment: NCI tumour cell line growth inhibition, 48 h

Reference set (5 entries):
>>> value_reported("COc1cc(S(C)(=O)=O)ccc1Nc1nc2ccc(-c3ccc(NC(=O)[C@H](C)c4ccc(F)cc4)cc3)cn2n1")
"0.749 µM"
>>> value_reported("Cc1c2ccc(N(C)c3ccnc(Nc4cccc(S(N)(=O)=O)c4)n3)cc2nn1C")
"8.95 µM"
>>> value_reported("COC(=O)C1=C(C(=O)OC)SC(=C(Cl)C(=S)Sc2ccccc2N)S1")
"16.7 µM"
>>> value_reported("COc1cc(S(=O)(=O)Nc2ccc(C3=NNC(c4ccccc4)C3)cc2)ccc1F (stereo unspecified)")
"22.2 µM"
>>> value_reported("O=C1CCCN1CC#CCN1CCCC1")
"> 100 µM"

What GI50 value was documented for this molecule, "O=C1CC(=O)OC(c2ccc([N+](=O)[O-])cc2)O1" ?
1.59 µM

* * *

tested on: SK-MEL-2 melanoma; experiment: NCI tumour cell line growth inhibition, 48 h
Each entry below carries its reported TGI.
// units = µM; emit number, no label

See these solved cases before continuing.
>>> value_reported("Nc1ccc(S(=O)(=O)NCc2nccs2)cc1")
37.9
>>> value_reported("Cc1c2cc[n+](C)cc2c(C)c2c1[nH]c1ccc(O)c(OCC(F)(F)F)c12")
17.6
>>> value_reported("COc1ccc(C2CC(n3nnnc3-c3ccccc3)=NN2)cc1 (stereo not given)")
32.7

# input for lookup
Data request, read-out TGI, for "Cc1ccc(NC(=O)Cn2c(Br)nc3c2c(=O)n(C)c(=O)n3C)cc1"
27.4

* * *

TGI overview
system: OVCAR-5 ovarian; assay: NCI tumour cell line growth inhibition, 48 h

Would you please look over these solved cases?
>>> value_reported("CCOC(=O)C(CS)NC(=O)CCCCCCCC(=O)NC(CS)C(=O)OCC (stereo unspecified)")
"> 100 µM"
>>> value_reported("Cn1c2ccccc2c2c3c(c4c5ccccc5n(C)c4c21)C(=O)c1ccccc1C3=O")
"> 100 µM"
>>> value_reported("CCOC(=O)[C@H]1Nc2ccc(OC)cc2C2c3ccccc3CC21 (stereo partly specified)")
"> 100 µM"
>>> value_reported("OC12CC/C(=N/OCc3ccccc3)CC1c1ccccc12 (stereo unspecified)")
"> 100 µM"
>>> value_reported("CC(C)(C)OC[C@H](O)CC#N")
"> 100 µM"

Which TGI is reported for this compound? "O=[N+]([O-])c1ccc2c(c1)[O][Sn][O]2"
> 150 µg/mL

* * *

system: M14 melanoma; assay: NCI tumour cell line growth inhibition, 48 h
Recorded TGI for the following compounds

Consider the following illustrative entries.
>>> value_reported("Cn1c2ccccc2c2c3c(c4c5ccccc5n(C)c4c21)C(=O)c1ccccc1C3=O")
"> 100 µM"
>>> value_reported("CCOC(=O)CC1NC(=O)CS1 (stereo not drawn)")
"> 100 µM"

In the following, a different compound is considered.
Could you tell me which TGI is on file for "Cc1ccc(-c2n[nH]c(=O)[nH]2)cc1[N+](=O)[O-]" ?
> 100 µM

* * *

Listed here: items and their measured GI50.
tested on: UO-31 renal; test: NCI tumour cell line growth inhibition, 48 h

>>> value_reported("Cc1cc(-c2nnc3n2CCCCC3)c(C)n1-c1ccc(Cl)c(Cl)c1")
"12.6 µM"
>>> value_reported("FCc1ncc(-c2ccc(C(F)(F)F)cc2)c(NC2CCCCCC2)n1")
"> 10 µM"
>>> value_reported("N.N.N.N.N.N.O=N[O-].[Br-].[Co+3].[Co+3].[OH3+].[OH3+]")
"> 100 µM"

What does the record list as GI50 for "CC(C)[C@H]1C(=O)N[C@@H](CCCN=C(N)N)C(=O)NCC(=O)N[C@@H](CC(=O)O)C(=O)N[C@H](Cc2ccccc2)C(=O)N1C" ?
> 73.2 µM

* * *

test system: COLO 205 colon; experiment: NCI tumour cell line growth inhibition, 48 h; in the data active means GI50 below about 0.43 µM; inactive means the rest
Output constraint: value belongs to 1 (yes) (active), 0 (no) (inactive)

>>> answer_label("CCN(CCNc1ccc(C)c2sc3ccccc3c(=O)c12)CC(C)(C)O")
"0 (no)"
>>> answer_label("Cn1cc(CNCC2CCN(c3ncc(C(=O)NO)cn3)CC2)c2ccccc21")
"1 (yes)"
>>> answer_label("c1cc(CNC2C3CCC(C3)C2c2c[nH]c3ccccc23)cc(CNC2C3CCC(C3)C2c2c[nH]c3ccccc23)c1 (stereo not given)")
"0 (no)"
>>> answer_label("COc1ccc(C2CC(n3nnnc3-c3ccccc3)=NN2)cc1 (stereo not given)")
"0 (no)"

From here, focus on the item given below.
What did the test return for "COc1ccc(Cn2c(Cl)c(/C=C3/C(=O)Nc4ccccc43)c3cc(OC)c(C)cc32)cc1" ?
0 (no)

* * *

test system: UACC-257 melanoma; test: NCI tumour cell line growth inhibition, 48 h; in the data active = GI50 below about 0.43 µM; inactive = the rest
Can you answer with just one of these options? Y = active, N = inactive

Consider the following illustrative entries.
>>> answer_label("COc1ccc(C(=O)N2c3ccccc3Sc3ccccc32)c(C(F)(F)F)c1")
"N"
>>> answer_label("CN[C@@H]1C[C@H]2O[C@@](C)([C@@H]1OC)n1c3ccccc3c3c4c(c5c6ccccc6n2c5c31)C(=O)N[C@@H]4O")
"Y"
>>> answer_label("FCc1ncc(-c2ccc(C(F)(F)F)cc2)c(NC2CCCCCC2)n1")
"N"

Kindly provide the recorded test outcome for the following compound: C[C-](O)O.O/C(=C\[C-](O)c1ccccc1)c1ccccc1.O/C(=C\[C-](O)c1ccccc1)c1ccccc1.[Nd+3] (centres undefined)
N

Then what about the compound N#C[C@@H]1C(n2ccc(N)nc2=O)O[C@H](CO)[C@H]1O (some centres undefined) ?
N

* * *

tested on: MOLT-4 leukemia; assay: NCI tumour cell line growth inhibition, 48 h
Where a SMILES comes first, the peptide text is derived from it. The star is where a group is joined. Boc = CC(C)(C)OC(=O)*; OBn = c1ccc(CO*)cc1
QUANTITY MEASURED: TGI

>>> value_reported("CC(C)(C)OC(=O)NC(Cc1ccccc1)C(=O)NC(Cc1ccccc1)C(=O)NCC(=O)OCc1ccccc1 (stereo not drawn) (Boc-Phe-Phe-Gly-OBn; configuration not given here)")
"56 µM"
>>> value_reported("C#CCn1c(=O)c(C#N)c(O)c2cc3ccccc3nc21")
"> 100 µM"
>>> value_reported("O=[N+]([O-])c1ccc2c(c1)[O][Sn]([I])([I])[O]2")
"> 100 µM"

Give recorded TGI with MOLT-4 leukemia for the following compound: "C/C(=N\NC(N)=S)c1nc2ccc(Cl)cc2[nH]1"
> 50 µM

Try this compound next: "Cc1ccc(S(=O)(=O)N=Nc2c(O)[nH]c3c(Cl)cc(Cl)cc23)cc1"
> 100 µM

Lookup "CCOC(=O)C(=O)Nc1c(C(C)C)cccc1C(C)C"
> 100 µM

Check C=C1C(=O)OC2/C=C(\C=O)CC/C=C(\C)C(O)C[C@@H]12 (stereo partly specified) too.
21.4 µM

Same question for O=C1Nc2cccc3cc(NCC(O)CCl)cc1c23 (stereo unspecified) please.
95.2 µM

Try this compound too: "CSc1ccc(/C=C2\C=C(CC(=O)NCc3ccc(C(=O)c4ccccc4)cc3)c3cc(F)ccc32)cc1"
> 36.7 µM

Now give it for C[C-](O)O.O/C(=C\[C-](O)c1ccccc1)c1ccccc1.O/C(=C\[C-](O)c1ccccc1)c1ccccc1.[Nd+3] (stereo unspecified) too.
28.7 µM

Another compound: CCOc1c(Cl)cc(CNC(C)C(O)c2ccccc2)cc1OC (stereo unspecified)
85.7 µM

What would you report for "COc1ccc2c(c1)/c(=C/c1ccc(N(C)C)cc1)c1cc(-c3ccccc3)[n+](C)n12" ?
4.92 µM

* * *

test system: MDA-N; experiment: NCI tumour cell line growth inhibition, 48 h
Listed next: entries and their corresponding TGI.

Use these answered entries as a reference point.
>>> value_reported("c1ccc2c(c1)nc1n2CCSC1")
"> 100 µM"
>>> value_reported("CN(C)CCNc1ncnc2nc(-c3ccc4ccccc4c3)[nH]c12")
"> 100 µM"
>>> value_reported("C=C1C(=O)O[C@H]2C[C@@]3(C)[C@H](O)CCC(=C)[C@@H]3[C@@H](OC(C)=O)[C@H]12")
"20.6 µM"

For the compound Cc1c(NC2(C)C(=O)N(/N=C/c3ccccc3)N=C2c2ccccc2)n[nH]c1-c1ccccc1 (centres undefined) , what TGI is on record?
> 100 µM

Also need O=c1[nH]c(N/N=C\C(O)C(O)C(O)CO)nc2ccccc12 (centres undefined) , thanks.
> 100 µM

Item: COc1ccc(/C=C2\N=C(c3ccccc3)N(C3Nc4cc5c(cc4S3)NC(N3C(=O)/C(=C/c4ccc(OC)cc4)N=C3c3ccccc3)S5)C2=O)cc1 (centres undefined)
> 100 µM

Now this one: "Cc1ccc(S(=O)(=O)c2c(O)c3ccccc3n(C)c2=O)cc1"
> 100 µM

Follow-up item: "COC(=O)[C@@]12CCCC(=O)[C@@H]1[C@H]1CCCC[C@H]12"
> 100 µM

And then COc1cc(S(=O)(=O)Nc2ccc(-c3csc(N4C(=O)CSC4c4ccccc4)n3)cc2)ccc1Cl (centres undefined) , what is it?
> 100 µM

Try "CSC1=NS(=O)(=O)c2cc(C(=O)NN(C)C(=O)c3cc4c(cc3Cl)SC(SC)=NS4(=O)=O)c(Cl)cc2S1" next.
> 10 µM

Source: PubChem BioAssay (NCI)
